molecules and their reported growth
# Test system: KM12 colon
# measurementProtocol: NCI-60 one-dose screen, 48 h (100 = growth as untreated, 0 = no growth, -100 = all killed)
# studyConditions: 10 µM unless noted
About 83,000 compounds went through this panel and 20% of them were active in at least one assay; those are over-represented in the sample as a whole.
Enter your answer as a number in %; do not include the unit.

// known answers, use as guide
{"molecule": "CCCCNC(=O)Oc1ccc(/C(=C(\\C)c2ccc(Cl)cc2)c2ccc(OCCN(CC)CC)cc2)cc1", "growth, %": 68.2}
{"molecule": "C#C[C@]1(O)CC[C@H]2[C@@H]3CC=C4c5sc(Nc6cc(F)ccc6F)nc5CC[C@]4(C)[C@H]3CC[C@@]21C", "growth, %": -41.2}
{"molecule": "Cc1cc(=O)[nH]c(=O)n1Cc1cn(-c2c3ccccc3nc3ccccc23)nn1", "growth, %": 98.6}

Lookup: Fill in the blank: the reported growth of COc1cc(C2CC(c3ccc(N(C)C)cc3)=NN2C(C)=O)cc(OC)c1OC (stereo unspecified) is ____.
Found: 10.8

Lookup: Fill in the blank: the reported growth of COc1cc(C2CC(c3ccc(SC)cc3)=NN2C(C)=O)cc(OC)c1OC (stereo unspecified) is ____.
Found: 39.4

Lookup: Fill in the blank: the reported growth of CCOc1c(B(O)O)cccc1-c1nc2ccc3[nH]ncc3c2c2c1CCCC2 is ____.
Found: 32.2

Lookup: Fill in the blank: the reported growth of CCCCOc1ccc(/C=N/NC(N)=S)cc1 is ____.
Found: 69.2

###

# System: HCT-15 colon
# measurementProtocol: NCI-60 one-dose screen, 48 h (100 = growth as untreated, 0 = no growth, -100 = all killed)
# studyConditions: 10 µM unless noted
The panel holds about 83,000 compounds, 20% with a hit somewhere; the sample as a whole holds those more often.
assayEndpoint: growth (%)
Enter your answer as a number in %; do not include the unit.

{"moleculeSmiles": "O=C1c2cccc3cccc(c23)C(=O)N1Nc1nc(NC2CCCCC2)nc(N2CCOCC2)n1", "assayEndpoint": "growth", "number": 93.1}
{"moleculeSmiles": "CCc1nnc(NC(=O)c2nnn(-c3ccccc3)c2-c2ccco2)s1", "assayEndpoint": "growth", "number": 51.5}

Okay, now this compound:
Lookup: Fill in the blank: the reported growth of Cc1cccc(NC2=C(Cl)C(=O)c3nc(C)ccc3C2=O)c1 is ____.
Found: -54.8

###

# System: SF-295 CNS
# measurementProtocol: NCI-60 one-dose screen, 48 h (100 = growth as untreated, 0 = no growth, -100 = all killed)
# studyConditions: 10 µM unless noted
The panel holds about 83,000 compounds, 20% with a hit somewhere; the sample as a whole holds those more often.
assayEndpoint: growth (%)
Enter your answer as a number in %; do not include the unit.

// known answers, use as guide
{"compound": "Nc1nc(-c2cccc3ccccc23)cc2ccccc12", "growth / %": -50.2}
{"compound": "CCc1ccc(Oc2c(-c3ccc(OCCc4cccc(C(F)(F)F)c4)cc3O)n[nH]c2C(F)(F)F)cc1", "growth / %": 87.6}

Lookup: Can you look up growth on SF-295 CNS for OC(c1ccccc1)C(NC(Cc1ccccc1)c1ccccc1)c1ccccc1 (stereo not drawn) ?
Found: 93.1

Lookup: Can you look up growth on SF-295 CNS for CCc1nnc(NC(=O)c2nnn(-c3ccccc3)c2-c2ccco2)s1 ?
Found: 87.2

###

# Test system: DU-145 prostate
# measurementProtocol: NCI-60 one-dose screen, 48 h
# studyConditions: 10 µM unless noted
About 83,000 compounds went through this panel and 20% of them were active in at least one assay; those are over-represented in the sample as a whole. Calls of active or inactive are those of the source. The calls were made as follows: active = growth percent below 10; inactive = the rest.
Log the outcome using a class from y (active), n (inactive)

Example results:
{"compound": "CC([C@H]1CCC2C3CCC4C[C@@H](NC=O)CC[C@]4(C)C3CC[C@@]21C)N(C)C (stereo partly specified)", "assignedLabel": "n"}
{"compound": "COc1cccc(-c2nc(-c3ccc(NC(=O)OC(C)C)cc3)[nH]c2-c2ccnc(Br)c2)c1", "assignedLabel": "n"}
{"compound": "OC(COc1ccccc1Cl)CN1CCN(c2cccc(Cl)c2)CC1 (stereo unspecified)", "assignedLabel": "n"}
{"compound": "CN(C)CCNc1nc2ccccc2c2c(=O)c3cc(F)ccc3sc12", "assignedLabel": "n"}
{"compound": "O=C(Nc1ccc(-c2nc(-c3cccc(OCCN4CCOCC4)c3)c(-c3ccnc(Br)c3)[nH]2)cc1)c1ccccc1", "assignedLabel": "n"}
{"compound": "O=C(CCCCCCSc1nc(-c2ccccc2)cc(-c2ccccc2)n1)NO", "assignedLabel": "n"}

Lookup: What did the test return for COc1cccc(-c2nc(-c3ccc(NC(=O)c4ccccc4)cc3)[nH]c2-c2ccnc(Br)c2)c1 ?
Found: n

Lookup: What did the test return for COC(=O)CCC/C=C\C[C@H]1C=CC(=O)/C1=C/C[C@@H](O)CCc1cccc(C(F)(F)F)c1 ?
Found: y

Lookup: What did the test return for COc1cc(/C=N/NC(=O)c2ccc(C)nc2)cc(OC)c1OC ?
Found: n

###

compounds and their reported growth
# System: PC-3 prostate
# measurementProtocol: NCI-60 one-dose screen, 48 h (100 = growth as untreated, 0 = no growth, -100 = all killed)
# studyConditions: 10 µM unless noted
The panel holds about 83,000 compounds, 20% with a hit somewhere; the sample as a whole holds those more often.
Enter your answer as a number in %; do not include the unit.

// known answers, use as guide
{"moleculeSmiles": "CCCCn1c(-c2ccc(-c3nc(-c4ccc(Cl)cc4)no3)cc2)nc(-c2ccccc2)c1-c1ccccc1", "readingUnit": "%", "growth": 70.4}
{"moleculeSmiles": "NCCCNc1nc2ccccc2c2c(=O)c3cc(F)cc(F)c3sc12", "readingUnit": "%", "growth": 73.8}

Okay, now this compound:
Lookup: Fill in the blank: the reported growth of COc1cccc2c(=O)c3c(sc12)c(N1CCNCC1)nc1ccccc13 is ____.
Found: 68.3

###

# System: HCC-2998 colon
# measurementProtocol: NCI-60 one-dose screen, 48 h (100 = growth as untreated, 0 = no growth, -100 = all killed)
# studyConditions: 10 µM unless noted
Compounds without any hit were thinned out: in the full panel of roughly 83,000, 20% have a hit. Calls of active or inactive are those of the source. The calls were made as follows: active = growth percent below 10; inactive = the rest.
assayEndpoint: growth

// known answers, use as guide
{"molecule": "NCCOc1ncccc1/C=C1\\c2ccccc2-c2ccc(C(F)F)cc21", "studySystem": "HCC-2998 colon", "growth": "24.2% (inactive)"}
{"molecule": "O=C(CS(=O)c1oc(-c2cccs2)nc1S(=O)(=O)c1ccc(Br)cc1)c1ccccc1 (centres undefined)", "studySystem": "HCC-2998 colon", "growth": "98.6% (inactive)"}
{"molecule": "CN(C)CCS(=O)(=O)Nc1cc(-c2ccc3ncc(C#N)c(Nc4ccc(F)c(Cl)c4)c3c2)cnc1Cl", "studySystem": "HCC-2998 colon", "growth": "-83.3% (active)"}
{"molecule": "c1ccc(-c2nc3sc(-c4ccccc4)cn3n2)cc1", "studySystem": "HCC-2998 colon", "growth": "104% (inactive)"}

Lookup: Fill in the blank: the reported growth of O=C(N=c1oc2ccccc2cc1-c1cc2ccccc2[nH]1)Nc1ccc(Cl)cc1 is ____.
Found: 99.7% (inactive)

Lookup: Fill in the blank: the reported growth of NCCCNc1nc2ccccc2c2c(=O)c3cccc(F)c3sc12 is ____.
Found: -46% (active)

###

# Tested on: SK-MEL-28 melanoma
# measurementProtocol: NCI-60 one-dose screen, 48 h
# studyConditions: 10 µM unless noted
About 83,000 compounds went through this panel and 20% of them were active in at least one assay; those are over-represented in the sample as a whole. Active and inactive are the calls of the source. The calls were made as follows: active = growth percent below 10; inactive = the rest.
Log the outcome using a class from active, inactive

Lookup: What did the test return for O=c1ccc(N=Nc2ccc([N+](=O)[O-])cc2)ccc1O ?
Found: inactive

Lookup: What did the test return for Cc1ccc2c(n1)C(=O)C(Cl)=C(Nc1ccccc1C(C)C)C2=O ?
Found: inactive

Lookup: What did the test return for O=C(N/N=C/[C@H](O)[C@@H](O)[C@@H](O)[C@H](O)CO)c1ccc(NC(=O)c2cccnc2)cc1 ?
Found: inactive

###

# System: SK-OV-3 ovarian
# measurementProtocol: NCI-60 one-dose screen, 48 h (100 = growth as untreated, 0 = no growth, -100 = all killed)
# studyConditions: 10 µM unless noted
This is part of a sample that, as a whole, favours compounds with a hit. Of some 83,000 tested, about 20% had one in any assay.
Bucketed by reported growth, buckets being Low: < 50%; Medium: ≥ 50% and < 90%; High: ≥ 90%

Example results:
{"compound": "c1ccc2cc(C[n+]3ccn(CCCCCCCCCCCCn4cc[n+](Cc5ccc6ccccc6c5)c4)c3)ccc2c1", "studySystem": "SK-OV-3 ovarian", "assignedLabel": "Low"}
{"compound": "NCCCNc1nc2ccccc2c2c(=O)c3cccc(F)c3sc12", "studySystem": "SK-OV-3 ovarian", "assignedLabel": "Medium"}
{"compound": "COc1nc2ccc(C)cc2cc1-c1nc2c(cnn2-c2ccc(Br)cc2)c(=O)[nH]1", "studySystem": "SK-OV-3 ovarian", "assignedLabel": "Low"}
{"compound": "COc1ccc(CN2c3ccccc3CCc3ccccc32)cc1F", "studySystem": "SK-OV-3 ovarian", "assignedLabel": "Low"}
{"compound": "Cc1nc2ccccc2n1-c1ncnc2c1CC(C)c1ccccc1N2C (configuration not stated)", "studySystem": "SK-OV-3 ovarian", "assignedLabel": "Medium"}
{"compound": "N[C@@H](Cc1ccccc1)[C@@H](O)C(=O)NCc1ccc(F)cc1", "studySystem": "SK-OV-3 ovarian", "assignedLabel": "High"}
{"compound": "O=C(N/N=C/[C@H](O)[C@@H](O)[C@@H](O)[C@H](O)CO)c1ccc(NC(=O)c2cccnc2)cc1", "studySystem": "SK-OV-3 ovarian", "assignedLabel": "High"}

Would you kindly look at the next entry?
Lookup: Which growth category applies to CC(=O)OC[C@H]1OC(Sc2sc(C(=O)c3ccc(Br)cc3)c(N)c2-c2nc3ccccc3s2)[C@H](OC(C)=O)[C@@H](OC(C)=O)[C@H]1OC(C)=O (some centres not stated) here?
Found: Medium
